# credit: PubChem BioAssay (NCI)

system: PC-3 prostate; assay: NCI-60 one-dose screen, 48 h (100 = growth as untreated, 0 = no growth, -100 = all killed); conditions: 10 µM unless noted
About 83,000 compounds went through this panel and 20% of them were active in at least one assay; those are over-represented in the sample as a whole.
readoutName: growth (%)
Quick reminder: number only, in %, skip the unit.

# smiles, targetDesc, readoutName, readoutUnit, measValue
measured = [
    ("O=C1C=CC(=O)N1CCCCCCCCCCN1C(=O)C=CC1=O", "PC-3 prostate", "growth", "%", 82.2),
    ("COc1ccc(CSc2nc3cc(OC)c(OC)cc3c(=O)n2-c2ccc(Cl)cc2)cc1", "PC-3 prostate", "growth", "%", 82),
    ("COc1cc2nc(SCc3cc(OC)c(OC)c(OC)c3)n(-c3ccccc3OC)c(=O)c2cc1OC", "PC-3 prostate", "growth", "%", 61.1),
]

Then there is this compound:
Input line: Tell me its growth given O=C1/C(=C/c2ccc(Cl)cc2)N=C(c2ccccc2)N1CCc1cccs1 as the entry.
Output line: 59
